Each record here notes measured pKd.
- targetDesc: T1, rat IL-11 (rat, UniProt Q99MF5 22-199)
- T1 construct: Invigate, e.g. lot #C301019-19; also called rIL11
- T1 sequence: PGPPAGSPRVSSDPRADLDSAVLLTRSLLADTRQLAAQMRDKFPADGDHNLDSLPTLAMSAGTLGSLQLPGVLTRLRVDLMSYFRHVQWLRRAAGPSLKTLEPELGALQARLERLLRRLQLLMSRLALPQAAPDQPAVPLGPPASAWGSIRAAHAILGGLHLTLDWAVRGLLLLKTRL
- methodSummary: SPR, antibody captured, IL-11 as analyte
Note: pKd values are expressed as the negative base-10 logarithm of concentration in M.

Some binders with recorded pKd:
[[record]]
binder = "TPP-29392 (antibody, human IgG1, V domains shown) VH: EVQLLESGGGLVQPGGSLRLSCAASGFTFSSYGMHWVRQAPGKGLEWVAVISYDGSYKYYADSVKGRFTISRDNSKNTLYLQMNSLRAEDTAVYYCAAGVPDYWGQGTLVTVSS VL: QSVLTQPPSASGTPGQRVTISCSGSSSNIWSDYDVHWYQQLPGTAPKLLIYSNEERPSGVPDRFSGSKSGTSASLAISGLRSEDEADYYCAAWDSSLSGPVFGGGTKLTVL"
outcomemeasure = "pKd"
datavalue = 9.02

[[record]]
binder = "TPP-29396 (antibody, human IgG1, V domains shown) VH: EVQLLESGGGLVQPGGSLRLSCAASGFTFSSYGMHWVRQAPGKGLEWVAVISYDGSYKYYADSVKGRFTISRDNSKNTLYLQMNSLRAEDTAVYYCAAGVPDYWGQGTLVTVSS VL: QSVLTQPPSASGTPGQRVTISCSGSSSNIWSDYDVHWYQQLPGTAPKLLIYSNEERPSGVPDRFSGSKSGTSASLAISGLRSEDEADYYCAAWDFSLYGPVFGGGTKLTVL"
outcomemeasure = "pKd"
datavalue = 9.36

[[record]]
binder = "TPP-29393 (antibody, human IgG1, V domains shown) VH: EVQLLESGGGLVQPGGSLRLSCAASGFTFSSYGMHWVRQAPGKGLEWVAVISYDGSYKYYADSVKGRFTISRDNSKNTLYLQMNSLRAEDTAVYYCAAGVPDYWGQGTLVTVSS VL: QSVLTQPPSASGTPGQRVTISCSGSSSNIGSDLDVHWYQQLPGTAPKLLIYSNEERPSGVPDRFSGSKSGTSASLAISGLRSEDEADYYCAAWDDSLYGPVFGGGTKLTVL"
outcomemeasure = "pKd"
datavalue = 9.74

[[record]]
binder = "TPP-29399 (antibody, human IgG1, V domains shown) VH: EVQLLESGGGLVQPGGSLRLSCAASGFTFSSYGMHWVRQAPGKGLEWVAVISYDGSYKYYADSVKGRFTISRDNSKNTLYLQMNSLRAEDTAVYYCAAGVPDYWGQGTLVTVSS VL: QSVLTQPPSASGTPGQRVTISCSGSSSNIGSDYDVHWYQQLPGTAPKLLIYSNNERPSGVPDRFSGSKSGTSASLAISGLRSEDEADYYCAAWDSSLSGPVFGGGTKLTVL"
outcomemeasure = "pKd"
datavalue = 9.28


We now examine a further binder.
Task item: Please give the measured pKd for this binder: TPP-29400 (antibody, human IgG1, V domains shown) VH: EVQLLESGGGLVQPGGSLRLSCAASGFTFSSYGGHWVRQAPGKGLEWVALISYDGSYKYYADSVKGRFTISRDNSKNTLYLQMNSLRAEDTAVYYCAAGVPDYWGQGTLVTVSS VL: QSVLTQPPSASGTPGQRVTISCSGSSSNIGSDYDVHWYQQLPGTAPKLLIYSNNERPSGVPDRFSGSKSGTSASLAISGLRSEDEADYYCAAWDFSLSGPVFGGGTKLTVL
Reply: 9.12
